- MEASURED_TARGET: AKT1 E17K (Homo sapiens, UniProt P31749, E17K)
- Construct: Purified human recombinant kinase full-length AKT1 E17K was expressed in insect cells
- Sequence (P31749 whole entry E17K): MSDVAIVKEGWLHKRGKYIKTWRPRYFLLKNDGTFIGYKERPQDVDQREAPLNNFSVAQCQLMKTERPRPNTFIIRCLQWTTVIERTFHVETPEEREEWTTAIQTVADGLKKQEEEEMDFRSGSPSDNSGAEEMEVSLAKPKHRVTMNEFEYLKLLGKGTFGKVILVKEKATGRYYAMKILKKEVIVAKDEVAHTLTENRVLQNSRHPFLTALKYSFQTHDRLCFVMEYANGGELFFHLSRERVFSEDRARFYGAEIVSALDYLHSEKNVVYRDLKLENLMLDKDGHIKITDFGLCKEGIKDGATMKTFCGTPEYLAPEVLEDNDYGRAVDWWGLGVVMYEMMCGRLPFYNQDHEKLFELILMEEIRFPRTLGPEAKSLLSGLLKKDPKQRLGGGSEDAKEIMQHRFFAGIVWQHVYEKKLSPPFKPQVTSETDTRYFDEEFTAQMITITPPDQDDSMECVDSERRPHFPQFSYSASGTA
- ASSAY_PROTOCOL: AKT1 E17K kinase assay (TR-FRET, Lance)
- RUN_PARAMETERS: full-length human recombinant AKT1 E17K activated by PDPK1; Ulight-CREBtide substrate; either 50 μM ATP or 2 mM ATP
Reported IC50 values for the following compounds.
ENDPOINT: IC50

molecule=Cn1ncc(-c2ccc(C(=O)NCc3ccc(-n4c(-c5cccnc5N)nc5ccc(-c6ccccc6)nc54)cc3)cc2)c1O result="≥ 500 nM"
molecule=Cc1cc(O)n(-c2ccc(C(=O)NCc3ccc(-n4c(-c5cccnc5N)nc5ccc(-c6ccccc6)cc54)cc3)cc2)n1 result="≥ 500 nM"
molecule=Cc1cc(O)n(-c2ccc(C(=O)NCc3ccc(-n4c(-c5cccnc5N)nc5cc(-c6cccnc6)cnc54)cc3)cc2)n1 result="≥ 500 nM"
molecule=Nc1ncccc1-c1nc2ccc(-c3ccccc3)nc2n1-c1ccc(C2CN(C(=O)c3cccc(-c4nn[nH]n4)c3)C2)cc1 result="50 to 200 nM"
molecule=Nc1ncccc1-c1nc2ccc(-c3ccccc3)nc2n1-c1ccc(CNC(=O)c2ccc(-n3nc(-c4ccccc4)cc3O)cc2)cc1 result="≥ 500 nM"

Data provenance is patent US20260200921A1.
